Lab note: pIC50 readings collected with Cathepsin B (Homo sapiens) for the following molecules.
pIC50: −log10 of the molar value.

STRUCTURE_NOTATION: CC[C@H](C)[C@H](NC(=O)OCc1ccccc1)C(=O)N[C@@H](CC(C)C)C(=O)N[C@@H](C)C(=O)N[C@H](/C=C/S(C)(=O)=O)CC(C)C
OPERATOR_SYMBOL: =
pIC50: 5.24
//
STRUCTURE_NOTATION: CC[C@H](C)[C@H](NC(=O)OCc1ccccc1)C(=O)N[C@@H](CCc1ccccc1)C(=O)N[C@@H](C)C(=O)N[C@H](/C=C/S(C)(=O)=O)CC(C)C
OPERATOR_SYMBOL: =
pIC50: 4.39
//
STRUCTURE_NOTATION: CC(=O)N[C@@H](CCC(=O)OC(C)(C)C)C(=O)N[C@@H](C)C(=O)N[C@H](/C=C/S(C)(=O)=O)CC(C)C
OPERATOR_SYMBOL: =
pIC50: 4.11
//
STRUCTURE_NOTATION: CC[C@H](C)[C@H](NC(=O)OCc1ccccc1)C(=O)N[C@@H](CS(=O)(=O)Cc1ccccc1)C(=O)N[C@@H](C)C(=O)N[C@H](/C=C/S(C)(=O)=O)CC(C)C
OPERATOR_SYMBOL: <
pIC50: 3.82
//
STRUCTURE_NOTATION: CC(C)C[C@@H](/C=C/S(C)(=O)=O)NC(=O)CNC(=O)[C@H](CCC(=O)OC(C)(C)C)NC(=O)OCc1ccccc1
OPERATOR_SYMBOL: <
pIC50: 3.82
//
STRUCTURE_NOTATION: CC[C@H](C)[C@H](NC(=O)OCc1ccccc1)C(=O)N[C@@H](CS(C)(=O)=O)C(=O)N[C@@H](C)C(=O)N[C@H](/C=C/S(C)(=O)=O)CC(C)C
OPERATOR_SYMBOL: =
pIC50: 3.85
//
STRUCTURE_NOTATION: CC(=O)N[C@@H](CCc1ccccc1)C(=O)N[C@@H](CC(C)C)C(=O)N[C@H](C)C(=O)N[C@H](/C=C/S(C)(=O)=O)CC(C)C
OPERATOR_SYMBOL: <
pIC50: 3.82

###

assay: in vitro; details: human, plasma
Description: Stability in human plasma after 120 mins
Values of remaining at 2 h strictly less than 70% map to fulfilled, and values of at least 70% map to not fulfilled.

STRUCTURE_NOTATION: CC[C@H](C)[C@H](NC(=O)OCc1ccccc1)C(=O)N[C@@H](COCc1ccccc1)C(=O)N[C@@H](C)C(=O)N[C@H](/C=C/S(C)(=O)=O)CC(C)C
ASSIGNED_CATEGORY: not fulfilled

STRUCTURE_NOTATION: CC[C@H](C)[C@H](NC(=O)OCc1ccccc1)C(=O)N[C@@H](CCC(=O)NC(C)(C)C)C(=O)N[C@@H](C)C(=O)N[C@H](/C=C/S(C)(=O)=O)CC(C)C
ASSIGNED_CATEGORY: not fulfilled

STRUCTURE_NOTATION: CC(C)C[C@@H](/C=C/S(C)(=O)=O)NC(=O)[C@H](C)NC(=O)[C@H](CCC(=O)OC(C)(C)C)NC(=O)OCc1ccccc1
ASSIGNED_CATEGORY: fulfilled

STRUCTURE_NOTATION: Cc1ccc(S(=O)(=O)N[C@@H](CC(=O)NCC(C)(C)C)C(=O)NC(C)(C)C(=O)N[C@H](/C=C/S(C)(=O)=O)CC(C)C)cc1
ASSIGNED_CATEGORY: not fulfilled

STRUCTURE_NOTATION: CC[C@H](C)[C@H](NC(=O)OCc1ccccc1)C(=O)N[C@@H](CCc1ccccc1)C(=O)N[C@@H](C)C(=O)N[C@H](/C=C/S(C)(=O)=O)CC(C)C
ASSIGNED_CATEGORY: fulfilled

STRUCTURE_NOTATION: Cc1ccc(S(=O)(=O)N[C@@H](CC(=O)NCC(C)(C)C)C(=O)N[C@@H](C)C(=O)NC(C)(C)C(=O)c2nnc(-c3ccccc3)o2)cc1
ASSIGNED_CATEGORY: not fulfilled

STRUCTURE_NOTATION: Cc1ccc(S(=O)(=O)N[C@@H](CC(=O)NCC(C)(C)C)C(=O)N[C@@H](C)C(=O)N[C@@H](CC(C)C)C(=O)c2nnc(-c3ccccc3)o2)cc1
ASSIGNED_CATEGORY: not fulfilled

STRUCTURE_NOTATION: CC[C@H](C)[C@H](NC(=O)OCc1ccccc1)C(=O)N[C@@H](CCC(=O)NC(C)(C)CC)C(=O)N[C@@H](C)C(=O)N[C@H](/C=C/S(C)(=O)=O)CC(C)C
ASSIGNED_CATEGORY: not fulfilled

STRUCTURE_NOTATION: Cc1cccc(S(=O)(=O)N[C@@H](CC(=O)NCC(C)(C)C)C(=O)N[C@@H](C)C(=O)N[C@@H](CC(C)C)C(=O)c2nnc(-c3ccccc3)o2)c1
ASSIGNED_CATEGORY: fulfilled

STRUCTURE_NOTATION: CC[C@H](C)[C@H](NC(=O)OCc1ccccc1)C(=O)N[C@@H](CCC(=O)OC1CCCCC1)C(=O)N[C@@H](C)C(=O)N[C@H](/C=C/S(C)(=O)=O)CC(C)C
ASSIGNED_CATEGORY: fulfilled

STRUCTURE_NOTATION: CC[C@H](C)[C@H](NC(=O)OCc1ccccc1)C(=O)N[C@@H](CCC(=O)NC(C)C)C(=O)N[C@@H](C)C(=O)N[C@H](/C=C/S(C)(=O)=O)CC(C)C
ASSIGNED_CATEGORY: not fulfilled

STRUCTURE_NOTATION: CC(=O)N[C@@H](CCc1ccccc1)C(=O)N[C@@H](CC(C)C)C(=O)N[C@@H](Cc1ccccc1)C(=O)N[C@H](/C=C/S(C)(=O)=O)CC(C)C
ASSIGNED_CATEGORY: not fulfilled

STRUCTURE_NOTATION: COC[C@H](NC(=O)[C@H](CC(=O)NCC(C)(C)C)NS(=O)(=O)c1ccc(C)cc1)C(=O)N[C@@H](CC(C)C)C(=O)c1nnc(-c2ccccc2)o1
ASSIGNED_CATEGORY: not fulfilled

STRUCTURE_NOTATION: CC[C@H](C)[C@H](NC(=O)OCc1ccccc1)C(=O)N[C@@H](CCCC(=O)OC(C)(C)C)C(=O)N[C@@H](C)C(=O)N[C@H](/C=C/S(C)(=O)=O)CC(C)C
ASSIGNED_CATEGORY: fulfilled

STRUCTURE_NOTATION: CC[C@H](C)[C@H](NC(=O)OCc1ccccc1)C(=O)N[C@@H](CC(C)C)C(=O)N[C@@H](C)C(=O)N[C@H](/C=C/S(C)(=O)=O)CC(C)C
ASSIGNED_CATEGORY: fulfilled

STRUCTURE_NOTATION: Cc1ccc(S(=O)(=O)N[C@@H](CC(=O)NCC(C)(C)C)C(=O)N[C@@H](C)C(=O)N[C@H](/C=C/S(C)(=O)=O)CC(C)C)cc1
ASSIGNED_CATEGORY: not fulfilled

STRUCTURE_NOTATION: Cc1ccc(S(=O)(=O)N[C@@H](CC(=O)NCC(C)(C)C)C(=O)N[C@@H](CO)C(=O)N[C@H](/C=C/S(C)(=O)=O)CC(C)C)cc1
ASSIGNED_CATEGORY: not fulfilled

STRUCTURE_NOTATION: CC[C@H](C)[C@H](NC(=O)OCc1ccccc1)C(=O)N[C@@H](CCC(=O)OC(C)(C)C)C(=O)N[C@@H](C)C(=O)N[C@H](/C=C/S(C)(=O)=O)CC(C)C
ASSIGNED_CATEGORY: fulfilled

STRUCTURE_NOTATION: CC(C)C[C@@H](/C=C/S(C)(=O)=O)NC(=O)[C@H](C)NC(=O)[C@H](CCC(=O)OC(C)(C)C)NC(=O)C(c1ccccc1)c1ccccc1
ASSIGNED_CATEGORY: fulfilled

STRUCTURE_NOTATION: Cc1ccc(S(=O)(=O)N[C@@H](CCC(=O)OC(C)(C)C)C(=O)N[C@@H](C)C(=O)N[C@H](/C=C/S(C)(=O)=O)CC(C)C)cc1
ASSIGNED_CATEGORY: fulfilled

STRUCTURE_NOTATION: CC[C@H](C)[C@H](NC(=O)OCc1ccccc1)C(=O)N[C@@H](CC(=O)NCC(C)(C)C)C(=O)N[C@@H](C)C(=O)N[C@H](/C=C/S(C)(=O)=O)CC(C)C
ASSIGNED_CATEGORY: not fulfilled

###

The following molecules each carry a recorded IC50 for Cathepsin S (Homo sapiens, UniProt P25774).
READOUT_TYPE: IC50 (µM)

STRUCTURE_NOTATION: CC(C)C[C@@H](/C=C/S(C)(=O)=O)NC(=O)[C@H](C)NC(=O)[C@H](CCC(=O)OC(C)(C)C)NC(=O)OCc1ccccc1
OBSERVED_MEASUREMENT: 3
--
STRUCTURE_NOTATION: CC[C@H](C)[C@H](NC(=O)OCc1ccccc1)C(=O)N[C@@H](CCCC(=O)OC(C)(C)C)C(=O)N[C@@H](C)C(=O)N[C@H](/C=C/S(C)(=O)=O)CC(C)C
OBSERVED_MEASUREMENT: 7.1
--
STRUCTURE_NOTATION: CC[C@H](C)[C@H](NC(=O)OCc1ccccc1)C(=O)N[C@@H](CS(C)(=O)=O)C(=O)N[C@@H](C)C(=O)N[C@H](/C=C/S(C)(=O)=O)CC(C)C
OBSERVED_MEASUREMENT: 13
--
STRUCTURE_NOTATION: CC[C@H](C)[C@H](NC(=O)OCc1ccccc1)C(=O)N[C@@H](CCC(N)=O)C(=O)N[C@@H](C)C(=O)N[C@H](/C=C/S(C)(=O)=O)CC(C)C
OBSERVED_MEASUREMENT: 48
--
STRUCTURE_NOTATION: CC[C@H](C)[C@H](NC(=O)OCc1ccccc1)C(=O)N[C@@H](CS(=O)(=O)Cc1ccccc1)C(=O)N[C@@H](C)C(=O)N[C@H](/C=C/S(C)(=O)=O)CC(C)C
OBSERVED_MEASUREMENT: 12
--
STRUCTURE_NOTATION: CC[C@H](C)[C@H](NC(=O)OCc1ccccc1)C(=O)N[C@@H](CCC(=O)NC(C)(C)C)C(=O)N[C@@H](C)C(=O)N[C@H](/C=C/S(C)(=O)=O)CC(C)C
OBSERVED_MEASUREMENT: 3.3
--
STRUCTURE_NOTATION: CC[C@H](C)[C@H](NC(=O)OCc1ccccc1)C(=O)N1CCC[C@H]1C(=O)N[C@@H](C)C(=O)N[C@H](/C=C/S(C)(=O)=O)CC(C)C
OBSERVED_MEASUREMENT: 13
--
STRUCTURE_NOTATION: CC(=O)N[C@@H](CCc1ccccc1)C(=O)N[C@@H](CC(C)C)C(=O)NCC(=O)N[C@H](/C=C/S(C)(=O)=O)CC(C)C
OBSERVED_MEASUREMENT: 12
--
STRUCTURE_NOTATION: CC(=O)N[C@@H](CCC(=O)OC(C)(C)C)C(=O)N[C@@H](C)C(=O)N[C@H](/C=C/S(C)(=O)=O)CC(C)C
OBSERVED_MEASUREMENT: 170
--
STRUCTURE_NOTATION: CC[C@H](C)[C@H](NC(=O)OCc1ccccc1)C(=O)N[C@@H](CCC(=O)NC(C)C)C(=O)N[C@@H](C)C(=O)N[C@H](/C=C/S(C)(=O)=O)CC(C)C
OBSERVED_MEASUREMENT: 41
--
STRUCTURE_NOTATION: Cc1ccc(S(=O)(=O)N[C@@H](CCC(=O)OC(C)(C)C)C(=O)N[C@@H](C)C(=O)N[C@H](/C=C/S(C)(=O)=O)CC(C)C)cc1
OBSERVED_MEASUREMENT: 67
